Just for reference, patent US9266922B2 is where these values come from.

# System Tested: HLA-A*0201 (Homo sapiens, UniProt P04439, D140Y/D185E/D98H/E176V/E277Q/G131W/G231S/I119V/I121R/I166T/I218V/L300P/L318F/N151K/N90K/P208A/P217A/Q86G/Q94H/R138H/R169H/T345S)
# Assay Notes: iScore calculation (iTOPIA system software)
# Experimental Conditions: multiparametric score of binding, off-rate and affinity
Residues, ends and D or L forms follow the SMILES beside them.
Measurement Name: iScore

• CC(C)C[C@H](N)C(=O)N[C@H](C(=O)N[C@@H](CO)C(=O)N[C@@H](C)C(=O)N[C@@H](CO)C(=O)N[C@H](C(=O)N[C@H](C(=O)N[C@H](C(=O)N[C@H](C(=O)O)C(C)C)C(C)C)C(C)C)C(C)C)C(C)C [Peptide 345] (H-LVSASVVVV-OH; N-terminus and C-terminus assumed) = 0.626
• CC(C)[C@H](NC(=O)[C@@H](NC(=O)[C@@H](NC(=O)[C@@H](NC(=O)[C@@H](NC(=O)[C@H](CC(=O)O)NC(=O)[C@H](CO)NC(=O)[C@@H](NC(=O)CN)[C@@H](C)O)C(C)C)C(C)C)[C@@H](C)O)C(C)C)C(=O)O [Peptide 35] (H-GTSDVVTVV-OH; N-terminus and C-terminus assumed) = 0.539
